- CONDITION PARAMETERS: 298.15 K; 101.33 kPa; Liquid
ASSAY READOUT: viscosity (mPa·s)

// worked examples, viscosity included
COMPOUND	viscosity / mPa·s
CCCCCCO [hexan-1-ol]	4.596
CCCCCCCC [octane]	0.508

(I) CCCCCCC(=O)OC [methyl heptanoate]
(II) CCCCC(=O)OC [methyl pentanoate]
Ask: Hi there! Just curious which has the higher viscosity between I and II . Identify your selection by its label.
Result: I
